Cited source: patent US20160287687A1

# STUDY_TARGET: T1, HLA-A*02:01 (human)
# T1 construct: MHC monomers first loaded with a UV-sensitive peptide (not identified) that is cleaved by UV light and exchanged for the test peptide; captured on streptavidin plates, detected with anti-β2m; also called peptide-receptive MHC molecules; MHC class I
# METHOD_NOTES: UV-ligand exchange + anti-b2m ELISA; peptide exchange yield grade (+ >=10%, ++ >=20%, +++ >=50, ++++ >=75%)
EXPERIMENTAL_ENDPOINT: peptide exchange yield

# count of solved cases: 3
BINDER: ALFEGVVRQI (source gene RRAD) [ALFEGVVRQI (SEQ ID NO: 104)]
RESULT: 50 to 75%
--
BINDER: ALVAKGLVQA (source gene AKR1A1) [ALVAKGLVQA (SEQ ID NO: 54)]
RESULT: 20 to 50%
--
BINDER: YLLNLNHLGL (source gene TRAM1) [YLLNLNHLGL (SEQ ID NO: 39)]
RESULT: 50 to 75%

Now, please, on to the next binder.
-- ask For the binder shown here, SLIKHKIML (source gene ATP6V1A) [SLIKHKIML (SEQ ID NO: 77)] , give the reported peptide exchange yield.
-- reply 20 to 50%
